Experiment: Blood brain barrier permeation
Assay type: in vivo, ICR mice
Details: male, ICR, mouse, brain/plasma, po, 10 mg/kg, oral once 10 mg/kg, 1 hr, read-out: B/P ratio
# Kp at 1 h per entry

Task item: Reported Kp at 1 h for Cc1cc(-c2nc(-c3ccnc(N)c3F)ccc2O)nc(N)n1 [Example 71] : what is it?
Reply: 2.26

Task item: Reported Kp at 1 h for Nc1nccc(-c2nc(-c3ccnc(N)c3F)ccc2O)n1 [Example 67] : what is it?
Reply: 2.21

Task item: Reported Kp at 1 h for Nc1nccc(-c2nc(-c3ccncc3)ccc2O)n1 [Example 12] : what is it?
Reply: 4.1

Task item: Reported Kp at 1 h for Nc1nccc(-c2ccc(O)c(-c3ccnc(N)n3)n2)n1 [Example 61] : what is it?
Reply: 1.05
